EXPERIMENTAL SYSTEM: UniProtKB Q13946
Sequence (Q13946 whole entry): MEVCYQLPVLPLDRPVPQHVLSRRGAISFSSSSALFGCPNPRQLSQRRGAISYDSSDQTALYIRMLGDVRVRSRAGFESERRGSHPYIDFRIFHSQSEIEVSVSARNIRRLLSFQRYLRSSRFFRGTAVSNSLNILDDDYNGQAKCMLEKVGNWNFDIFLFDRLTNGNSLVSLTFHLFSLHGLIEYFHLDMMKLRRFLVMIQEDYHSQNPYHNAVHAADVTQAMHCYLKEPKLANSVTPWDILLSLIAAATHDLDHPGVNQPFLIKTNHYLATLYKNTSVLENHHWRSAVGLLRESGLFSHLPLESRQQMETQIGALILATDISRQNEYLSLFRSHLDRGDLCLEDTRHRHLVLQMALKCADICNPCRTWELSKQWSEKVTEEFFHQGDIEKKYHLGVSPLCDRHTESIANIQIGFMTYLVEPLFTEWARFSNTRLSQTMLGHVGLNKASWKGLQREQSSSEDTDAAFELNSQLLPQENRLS
MEASURED ENDPOINT: IC50
The reply should consist of the numeric value with the unit placed after it.

input: Recorded IC50 for "COc1c(OCCCCCCC(=O)O)cc2oc3cc4c(c(O)c3c(=O)c2c1CC=C(C)C)C=CC(C)(C)O4" , please?
output: 620 nM

---

ASSAY NAME: AUC(0 to t) in Sprague-Dawley rat at 5 mg/kg, po measured upto 24 hrs by LC-MS/MS analysis
Assay type: ADME, organism-based
Design: dose 5 mg/kg, time < 24 hr, route oral
TEST CONTEXT: in vivo
MEASURED ENDPOINT: AUC(0-t) at 24 h (ng·h/mL)
Please respond with the number in ng·h/mL and leave the unit unwritten.

input: What does the record list as AUC(0-t) at 24 h for "COc1c(OCCCCCCC(=O)O)cc2oc3cc4c(c(O)c3c(=O)c2c1CC=C(C)C)C=CC(C)(C)O4" ?
output: 4740

src = ChEMBL document CHEMBL4402573
